- Read-out: Transforming growth factor beta 1 (TGFb1), TGFB1 (gene 7040)
- assay-comment: BSK_KF3CT_TGFb1: BioMAP Diversity Plus: KF3CT Assay for Transforming growth factor beta 1 (TGFb1) Biomarker Activity (AID 2283072)
- condition-context: primary human keratinocytes with fibroblasts; actives raise or lower the signal
The source made the active and inactive calls. Rule for the calls: active = hit-call score of the fitted dose curve at least 0.9, where 1 is the maximum; inactive = score below 0.9.
# valid calls are 1 = active, -1 = inactive; nothing else

Problem: Fill in: this test's call for CCCCOCCOCCOC(=O)CCCCC(=O)OCCOCCOCCCC is ___
Result: -1

Problem: Cool, now O[Si](c1ccccc1)(c1ccccc1)c1ccccc1
Result: 1

Problem: Cool, now CCCCCCC(C)OC(=O)CCCCC(=O)OC(C)CCCCCC (centres undefined)
Result: -1

Problem: Cool, now C=CC/C=C/C/C=C/C/C=C/C
Result: -1
